# TARGET_ENTITY: equine FcRn (large alpha subunit p51) / equine beta-2-microglobulin complex, biotinylated (equine) (UniProt P30441)
# ASSAY_DETAILS: SPR (Biacore), pH 6
READOUT_LABEL: pKd
# pKd is unitless: minus log10 of the molar concentration; print number only

q: Entry equine IgG1 T286G (antibody, part only; not given: variable domains, not shown: another chain or arm of the molecule) constant: ASTTAPKVFALAPGCGTTSDSTVALGCLVSGYFPEPVKVSWNSGSLTSGVHTFPSVLQSSGFYSLSSMVTVPASTWTSETYICNVVHAASNFKVDKRIEPIPDNHQKVCDMSKCPKCPAPELLGGPSVFIFPPNPKDTLMITRTPEVTCVVVDVSQENPDVKFNWYMDGVEVRGATTRPKEEQFNSTYRVVSVLRIQHQDWLSGKEFKCKVNNQALPQPIERTITKTKGRSQEPQVYVLAPHPDELSKSKVSVTCLVKDFYPPEINIEWQSNGQPELETKYSTTQAQQDSDGSYFLYSKLSVDRNRWQQGTTFTCGVMHEALHNHYTQKNVSKNPGK has what pKd?
a: 7.82
